In this section, each of the compounds is paired with its reported Liver Cmax/Dose.
# experimentalProtocol: Pharmacokinetic and tissue distribution study via intravenous and oral administration in male C57BL/6 mice
# Format: in vivo
# studyConditions: mice liver, PO
Please state the figure in kg·ng/mg/mL; there is no need to write the unit.

Consider the following illustrative entries.
[
  {
    "compound": "CCOC(=O)C1=C(CN2CCOCC2)NC(c2nccs2)=NC1c1ccc(F)cc1Br (stereo not shown) [Reference 1, GLS4, reference compound]",
    "reportedProperty": "Liver Cmax/Dose",
    "scaleUnit": "kg·ng/mg/mL",
    "measValue": 5.1
  },
  {
    "compound": "CCOC(=O)C1=C(CN2CCN3C(=O)N(CC(C)(C)C(=O)O)C[C@@H]3C2)NC(c2nccs2)=N[C@H]1c1cccc(F)c1C [Reference 2, reference compound]",
    "reportedProperty": "Liver Cmax/Dose",
    "scaleUnit": "kg·ng/mg/mL",
    "measValue": 1676
  },
  {
    "compound": "CCOC(=O)C1=C(CN2CCN3C(=S)N(CC(C)(C)C(=O)O)CC3C2)NC(c2nccs2)=NC1c1cccc(F)c1Cl (single isomer, unassigned)",
    "reportedProperty": "Liver Cmax/Dose",
    "scaleUnit": "kg·ng/mg/mL",
    "measValue": 6624
  }
]

Pending compound:
Q) Give the measured Liver Cmax/Dose for CCOC(=O)C1=C(CN2CCN3C(=S)N(CC(C)(C)C(=O)O)CC3C2)NC(c2nccs2)=N[C@H]1c1cccc(F)c1C (single isomer, unassigned)
A) 6225

---

# experimentalProtocol: Pharmacokinetic study after intravenous and oral administration in male SD rats
# Assay type: in vivo
# studyConditions: male, SD; rat plasma, IV, nominal 2 mg/kg; read-out: IV Cl
# Description: Male SD rats with a weight range of 250-300 g (Si Bei Fu Laboratory Animal Technology Co. Ltd, China) were used. Animals were fasted overnight and free access to food 4 hours after dosing. […] Plasma samples were analyzed using LC-MS/MS methods. The lower limit of quantification (LLOQ) for plasma was 1.0 ng/ml. […]
In this section, each of the compounds is paired with its reported clearance.
Please state the figure in mL/min/kg; there is no need to write the unit.

Consider the following illustrative entries.
[
  {
    "compound": "COC(=O)C1=C(CN2CCN3C(=S)N(CC(C)(C)C(=O)O)CC3C2)NC(c2nccs2)=NC1c1ccc(F)cc1Cl (single isomer, unassigned) [Compound 4B]",
    "scaleUnit": "mL/min/kg",
    "clearance": 28.8
  },
  {
    "compound": "CCOC(=O)C1=C(CN2CCN3C(=O)N(CC(C)(C)C(=O)O)C[C@@H]3C2)NC(c2nccs2)=N[C@H]1c1cccc(F)c1C [Reference 2, reference compound]",
    "scaleUnit": "mL/min/kg",
    "clearance": 65.6
  },
  {
    "compound": "CCOC(=O)C1=C(CN2CCN3C(=S)N(CC(C)(C)C(=O)O)CC3C2)NC(c2nccs2)=N[C@H]1c1cccc(F)c1C (single isomer, unassigned) [Compound 1A]",
    "scaleUnit": "mL/min/kg",
    "clearance": 11.6
  }
]

Q) Give the measured clearance for CCOC(=O)C1=C(CN2CCN3C(=S)N(CC(C)(C)C(=O)O)CC3C2)NC(c2nccs2)=NC1c1cccc(F)c1Cl (single isomer, unassigned) [Compound 3B]
A) 23.4

---

# experimentalProtocol: Pharmacokinetic study after intravenous and oral administration in male SD rats
# Format: in vivo
# studyConditions: rat plasma, PO
In this section, each of the compounds is paired with its reported PO AUCinf/Dose.
Please state the figure in ng·kg·h/mg/mL; there is no need to write the unit.

[
  {
    "compound": "CCOC(=O)C1=C(CN2CCN3C(=S)N(CC(C)(C)C(=O)O)CC3C2)NC(c2nccs2)=NC1c1cccc(F)c1Cl (single isomer, unassigned)",
    "PO AUCinf/Dose (ng·kg·h/mg/mL)": 389.2
  }
]

Q) Give the measured PO AUCinf/Dose for CCOC(=O)C1=C(CN2CCN3C(=O)N(CC(C)(C)C(=O)O)C[C@@H]3C2)NC(c2nccs2)=N[C@H]1c1cccc(F)c1C [Reference 2, reference compound]
A) 129.7

Q) Give the measured PO AUCinf/Dose for COC(=O)C1=C(CN2CCN3C(=S)N(CC(C)(C)C(=O)O)CC3C2)NC(c2nccs2)=NC1c1ccc(F)cc1Cl (single isomer, unassigned)
A) 336.8

Q) Give the measured PO AUCinf/Dose for CCOC(=O)C1=C(CN2CCN3C(=S)N(CC(C)(C)C(=O)O)CC3C2)NC(c2nccs2)=N[C@H]1c1cccc(F)c1C (single isomer, unassigned)
A) 1780.7

---

# experimentalProtocol: Cytotoxicity determination in HepG2.2.15 cells (CCK-8 assay)
# Format: cell-based
# studyConditions: human, 6 days treatment, CCK-8, highest concentration 100 uM
In this section, each of the compounds is paired with its reported CC50 at 6 days.
Just so you know, I need the unit written after the number.

Consider the following illustrative entries.
[
  {
    "compound": "COC(=O)C1=C(CN2CCN3C(=S)N(CC(C)(C)C(=O)O)C[C@@H]3C2)NC(c2nccs2)=N[C@H]1c1cccc(F)c1Cl (single isomer, unassigned) [Compound 20A]",
    "CC50 at 6 days": "16.4 µM"
  },
  {
    "compound": "COC(=O)C1=C(CN2CCN3C(=S)N(CC(C)(C)C(=O)O)CC3C2)NC(c2nccs2)=NC1c1ccc(F)c(F)c1C (single isomer, unassigned) [Compound 12B]",
    "CC50 at 6 days": "14.5 µM"
  },
  {
    "compound": "CCOC(=O)C1=C(CN2CCN3C(=S)N(CC(C)(C)C(=O)O)C[C@@H]3C2)NC(c2nccs2)=N[C@@H]1c1ccc(F)c(F)c1C (single isomer, unassigned) [Compound 15A]",
    "CC50 at 6 days": "25.6 µM"
  },
  {
    "compound": "CCOC(=O)C1=C(CN2CCN3C(=S)N(CC4(C(=O)O)CC4)CC3C2)NC(c2nccs2)=NC1c1cccc(F)c1Cl (centres unmarked) [Compound 5]",
    "CC50 at 6 days": "11.8 µM"
  }
]

Pending compound:
Q) Give the measured CC50 at 6 days for CCOC(=O)C1=C(CN2CCN3C(=S)N(CC4(C(=O)O)CC4)C[C@@H]3C2)NC(c2nccs2)=N[C@H]1c1cccc(F)c1Cl (single isomer, unassigned) [Compound 18B]
A) 13 µM

---

In this section, each of the molecules is paired with its reported CC50 at 6 days.
# experimentalProtocol: Cytotoxicity determination in HepG2.2.15 cells (CCK-8 assay)
# Assay type: cell-based
# studyConditions: human, 6 days treatment, CCK-8, highest concentration 100 uM
Please state the figure in µM; there is no need to write the unit.

Consider the following illustrative entries.
[
  {
    "molecule": "CCOC(=O)C1=C(CN2CCN3C(=NC#N)N(CC(C)(C)C(=O)O)CC3C2)NC(c2nccs2)=N[C@H]1c1cccc(F)c1C (stereo partly shown)",
    "reportedProperty": "CC50 at 6 days",
    "measValue": 55.4
  },
  {
    "molecule": "CCOC(=O)C1=C(CN2CCN3C(=S)N(CC(C)(C)C(=O)O)CC3C2)NC(c2nccs2)=N[C@H]1c1cccc(F)c1C (single isomer, unassigned)",
    "reportedProperty": "CC50 at 6 days",
    "measValue": 22.5
  }
]

Pending molecule:
Q) Give the measured CC50 at 6 days for CCOC(=O)C1=C(CN2CCN3C(=S)N(CC(C)(C)C(=O)O)CC[C@H]3C2)NC(c2nccs2)=N[C@H]1c1cccc(F)c1C
A) 20.5

All figures here come from patent US20230165865A1.
